Recorded inhibition for the following compounds
molecular target: Serine/threonine-protein kinase PLK3 (Homo sapiens); experiment: Inhibition of PLK3 (unknown origin) at 10 uM relative to control
Field: numeric (%). Do not append units.

Sample records with inhibition:
• CC(C)Nc1c(C(N)=O)cnc2cc(-c3ccc(S(C)(=O)=O)cc3)ccc12 = 1
• CC(C)Nc1c(C(N)=O)nnc2ccc(-c3ccncc3)cc12 = 73
• CC(C)Nc1c(C(N)=O)nnc2cc(-c3ccncc3)ccc12 = 0
• CS(=O)(=O)c1ccc(-c2ccc3c(NC4CCC4)c(C(N)=O)nnc3c2)cc1 = 10
• C[C@@H](Nc1c(C(N)=O)nnc2cc(-c3ccc(S(C)(=O)=O)cc3)ccc12)C1CC1 = 5

Read the next record carefully.
Supply measured inhibition of CC(C)Nc1c(C(N)=O)nnc2ccc(-c3cn[nH]c3)cc12 in your reply.
16

---

target: RAC-alpha serine/threonine-protein kinase (Homo sapiens) (UniProt P31749); experiment: Inhibition of AKT1 (unknown origin) at 10 uM relative to control
Sequence (P31749 whole entry): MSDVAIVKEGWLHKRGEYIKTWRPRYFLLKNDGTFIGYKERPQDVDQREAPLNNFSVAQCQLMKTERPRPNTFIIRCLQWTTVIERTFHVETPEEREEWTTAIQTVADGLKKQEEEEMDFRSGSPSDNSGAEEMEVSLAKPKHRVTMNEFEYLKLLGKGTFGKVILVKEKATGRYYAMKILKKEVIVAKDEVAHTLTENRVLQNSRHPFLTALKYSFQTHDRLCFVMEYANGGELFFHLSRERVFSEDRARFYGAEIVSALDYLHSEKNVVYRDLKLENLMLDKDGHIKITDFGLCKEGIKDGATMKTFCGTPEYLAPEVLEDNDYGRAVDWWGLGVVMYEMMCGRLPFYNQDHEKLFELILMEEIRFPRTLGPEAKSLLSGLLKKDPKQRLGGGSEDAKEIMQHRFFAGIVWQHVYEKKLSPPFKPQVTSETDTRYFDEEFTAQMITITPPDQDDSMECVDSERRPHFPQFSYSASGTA
PROPERTY_MEASURED: inhibition (%)
Field: numeric (%). Do not append units.

Sample records with inhibition:
* CC(C)Nc1c(C(N)=O)nnc2ccc(-c3ccncc3)cc12 | 25
* CS(=O)(=O)c1ccc(-c2ccc3c(NC4CCC4)c(C(N)=O)nnc3c2)cc1 | 5
* CC(C)Nc1c(C(N)=O)nnc2ccc(-c3cn[nH]c3)cc12 | 32
* CC(C)Nc1c(C(N)=O)nnc2cc(N3CCOCC3)ccc12 | 1

Supply measured inhibition of CC(C)Nc1c(C(N)=O)nnc2cc(-c3ccncc3)ccc12 in your reply.
13

Supply measured inhibition of CC(C)Nc1c(C(N)=O)cnc2cc(-c3ccc(S(C)(=O)=O)cc3)ccc12 in your reply.
5

Supply measured inhibition of C[C@@H](Nc1c(C(N)=O)nnc2cc(-c3ccc(S(C)(=O)=O)cc3)ccc12)C1CC1 in your reply.
4

---

target: Cyclin-dependent kinase 1/cyclin B1 (Homo sapiens) (UniProt P06493+P14635); assay: Inhibition of CDK1/cyclin B (unknown origin) at 10 uM relative to control; assay type: protein-complex assay
Sequence (P06493 whole entry, looked up): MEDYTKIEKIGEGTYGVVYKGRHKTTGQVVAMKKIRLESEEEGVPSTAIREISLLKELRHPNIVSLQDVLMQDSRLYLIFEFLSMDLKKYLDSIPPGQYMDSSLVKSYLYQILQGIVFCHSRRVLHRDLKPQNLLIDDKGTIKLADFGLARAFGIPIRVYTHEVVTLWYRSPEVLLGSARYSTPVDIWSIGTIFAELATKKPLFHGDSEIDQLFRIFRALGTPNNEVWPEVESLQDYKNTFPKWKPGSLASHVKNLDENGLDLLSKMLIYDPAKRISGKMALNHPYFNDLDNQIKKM
Sequence (P14635 whole entry, looked up): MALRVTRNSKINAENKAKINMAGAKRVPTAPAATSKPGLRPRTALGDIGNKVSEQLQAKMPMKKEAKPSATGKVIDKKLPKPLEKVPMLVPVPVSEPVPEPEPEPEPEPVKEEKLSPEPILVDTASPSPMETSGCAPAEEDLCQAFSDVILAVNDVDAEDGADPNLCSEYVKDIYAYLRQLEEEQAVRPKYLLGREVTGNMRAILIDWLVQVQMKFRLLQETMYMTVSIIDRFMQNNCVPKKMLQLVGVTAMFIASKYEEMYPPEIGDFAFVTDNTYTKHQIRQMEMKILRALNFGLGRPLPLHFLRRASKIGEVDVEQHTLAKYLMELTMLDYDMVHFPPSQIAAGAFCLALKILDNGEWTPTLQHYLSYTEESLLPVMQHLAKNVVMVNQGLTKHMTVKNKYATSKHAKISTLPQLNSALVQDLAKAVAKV
Recorded inhibition for the following molecules
Field: numeric (%). Do not append units.

• CS(=O)(=O)c1ccc(-c2ccc3c(NC4CCC4)c(C(N)=O)nnc3c2)cc1 = 7

Read the next record carefully.
Supply measured inhibition of CC(C)Nc1c(C(N)=O)nnc2ccc(-c3cn[nH]c3)cc12 in your reply.
102

---

Target: Serine/threonine-protein kinase Chk1 (Homo sapiens) (UniProt O14757)
Sequence (whole entry): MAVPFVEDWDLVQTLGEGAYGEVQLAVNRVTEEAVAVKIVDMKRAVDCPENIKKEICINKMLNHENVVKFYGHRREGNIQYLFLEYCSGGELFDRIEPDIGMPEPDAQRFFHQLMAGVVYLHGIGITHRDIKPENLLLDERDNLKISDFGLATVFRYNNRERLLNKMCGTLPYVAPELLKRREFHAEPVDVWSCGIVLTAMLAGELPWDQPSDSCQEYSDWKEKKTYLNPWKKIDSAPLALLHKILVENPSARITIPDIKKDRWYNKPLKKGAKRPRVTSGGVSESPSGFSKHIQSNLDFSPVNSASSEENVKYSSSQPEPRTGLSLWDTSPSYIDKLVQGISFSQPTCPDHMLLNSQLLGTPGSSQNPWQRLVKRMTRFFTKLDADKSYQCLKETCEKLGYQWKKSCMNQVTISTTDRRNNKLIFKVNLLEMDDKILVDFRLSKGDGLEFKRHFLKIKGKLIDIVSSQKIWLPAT
Assay: Inhibition of CHK1 (unknown origin) at 10 uM relative to control
PROPERTY_MEASURED: inhibition
Reply with a number, then the unit it belongs to.

- CC(C)Nc1c(C(N)=O)nnc2cc(-c3ccncc3)ccc12: 95%

Read the next record carefully.
Supply measured inhibition of C[C@@H](Nc1c(C(N)=O)nnc2cc(-c3ccc(S(C)(=O)=O)cc3)ccc12)C1CC1 in your reply.
54%
